src = patent US20260207572A1

# Procedure details: Phase 1 single-dose plasma pharmacokinetics in subjects with normal hepatic function, mild or moderate hepatic impairment
# Type: in vivo, human
# Test settings: human, plasma, po, 200 mg, Moderate Hepatic Impairment; 200 mg single oral dose; read-out: AUC0-∞, Geometric Mean
Measured property: AUC(0-inf) (µg·h/mL)
Numeric only. Scale: µg·h/mL

Exam item: // returns reported AUC(0-inf) for input "N#CC1(c2ccc(NC(=O)c3cccnc3NCc3ccncc3)cc2)CCCC1"
Marked response: 2.46

====

# Procedure details: Phase 1 single-dose plasma pharmacokinetics in subjects with normal hepatic function, mild or moderate hepatic impairment
# Type: in vivo, human
# Test settings: human, plasma, po, 200 mg, Moderate Hepatic Impairment; 3 h; 200 mg single oral dose; read-out: Plasma concentration, Geometric Mean
Measured property: concentration at 3 h

Exam item: // returns reported concentration at 3 h for input "N#CC1(c2ccc(NC(=O)c3cccnc3NCc3ccncc3)cc2)CCCC1"
Marked response: 154 ng/mL

====

# Procedure details: Phase 1 single-dose plasma pharmacokinetics in subjects with normal hepatic function, mild or moderate hepatic impairment
# Assay type: in vivo, human
# Test settings: human, plasma, po, 200 mg, Normal Hepatic Function; 3 h; 200 mg single oral dose; read-out: Plasma concentration, Arithmetic Mean
Measured property: concentration at 3 h (ng/mL)
Numeric only. Scale: ng/mL

Exam item: // returns reported concentration at 3 h for input N#CC1(c2ccc(NC(=O)c3cccnc3NCc3ccncc3)cc2)CCCC1 [Rivoceranib]
Marked response: 216

====

# Procedure details: Phase 1 single-dose plasma pharmacokinetics in subjects with normal hepatic function, mild or moderate hepatic impairment
# Format: in vivo, human
# Test settings: human, plasma, po, 200 mg, Mild Hepatic Impairment; 3 h; 200 mg single oral dose; read-out: Plasma concentration, Arithmetic Mean
Measured property: concentration at 3 h (ng/mL)
Numeric only. Scale: ng/mL

Exam item: // returns reported concentration at 3 h for input "N#CC1(c2ccc(NC(=O)c3cccnc3NCc3ccncc3)cc2)CCCC1"
Marked response: 220

====

# Procedure details: Phase 1 single-dose plasma pharmacokinetics in subjects with normal hepatic function, mild or moderate hepatic impairment
# Type: in vivo, human
# Test settings: human, plasma, po, 200 mg, Mild Hepatic Impairment; 200 mg single oral dose; read-out: t1/2, Arithmetic Mean (converted)
Measured property: half-life

Exam item: // returns reported half-life for input "N#CC1(c2ccc(NC(=O)c3cccnc3NCc3ccncc3)cc2)CCCC1"
Marked response: 13.3 h

====

# Procedure details: Phase 1 single-dose plasma pharmacokinetics in subjects with normal hepatic function, mild or moderate hepatic impairment
# Assay type: in vivo, human
# Test settings: human, plasma, po, 200 mg, Mild Hepatic Impairment; 1 h; 200 mg single oral dose; read-out: Plasma concentration, Arithmetic Mean
# Text: Patients: 27 subjects were enrolled within the following groups based on their Child-Pugh (CP) classification score: • Group 1: Matched-control healthy subjects with normal hepatic function; • Group 2: Subjects with mild hepatic impairment (CP Class A, score of 5 or 6); • Group 3: Subjects with moderate hepatic impairment (CP Class B, score of 7 to 9). A parallel design strategy was adopted for the hepatic impairment groups. […]
Measured property: concentration at 1 h (ng/mL)
Numeric only. Scale: ng/mL

Exam item: // returns reported concentration at 1 h for input N#CC1(c2ccc(NC(=O)c3cccnc3NCc3ccncc3)cc2)CCCC1 [Rivoceranib]
Marked response: 178

====

# Procedure details: Phase 1 single-dose plasma pharmacokinetics in subjects with normal hepatic function, mild or moderate hepatic impairment
# Format: in vivo, human
# Test settings: human, plasma, po, 200 mg, Mild Hepatic Impairment; 4 h; 200 mg single oral dose; read-out: Plasma concentration, Geometric Mean
Measured property: concentration at 4 h (ng/mL)
Numeric only. Scale: ng/mL

Exam item: // returns reported concentration at 4 h for input N#CC1(c2ccc(NC(=O)c3cccnc3NCc3ccncc3)cc2)CCCC1 [Rivoceranib]
Marked response: 112

====

# Procedure details: Phase 1 single-dose plasma pharmacokinetics in subjects with normal hepatic function, mild or moderate hepatic impairment
# Type: in vivo, human
# Test settings: human, plasma, po, 200 mg, Normal Hepatic Function; 200 mg single oral dose; read-out: Cmax, Geometric Mean
# Source text: Patients: 27 subjects were enrolled within the following groups based on their Child-Pugh (CP) classification score: • Group 1: Matched-control healthy subjects with normal hepatic function; • Group 2: Subjects with mild hepatic impairment (CP Class A, score of 5 or 6); • Group 3: Subjects with moderate hepatic impairment (CP Class B, score of 7 to 9). A parallel design strategy was adopted for the hepatic impairment groups. […]
Measured property: Cmax (ng/mL)
Numeric only. Scale: ng/mL

Exam item: // returns reported Cmax for input "N#CC1(c2ccc(NC(=O)c3cccnc3NCc3ccncc3)cc2)CCCC1"
Marked response: 250

====

# Procedure details: Phase 1 single-dose plasma pharmacokinetics in subjects with normal hepatic function, mild or moderate hepatic impairment
# Format: in vivo, human
# Test settings: human, plasma, po, 200 mg, Moderate Hepatic Impairment; 200 mg single oral dose; read-out: t1/2, Arithmetic Mean (converted)
Measured property: half-life (h)
Numeric only. Scale: h

Exam item: // returns reported half-life for input N#CC1(c2ccc(NC(=O)c3cccnc3NCc3ccncc3)cc2)CCCC1 [Rivoceranib]
Marked response: 18.7

====

# Procedure details: Phase 1 single-dose plasma pharmacokinetics in subjects with normal hepatic function, mild or moderate hepatic impairment
# Type: in vivo, human
# Test settings: human, plasma, po, 200 mg, Normal Hepatic Function; 0.5 h; 200 mg single oral dose; read-out: Plasma concentration, Median
# Source text: Patients: 27 subjects were enrolled within the following groups based on their Child-Pugh (CP) classification score: • Group 1: Matched-control healthy subjects with normal hepatic function; • Group 2: Subjects with mild hepatic impairment (CP Class A, score of 5 or 6); • Group 3: Subjects with moderate hepatic impairment (CP Class B, score of 7 to 9). A parallel design strategy was adopted for the hepatic impairment groups. […]
Measured property: concentration at 0.5 h (ng/mL)
Numeric only. Scale: ng/mL

Exam item: // returns reported concentration at 0.5 h for input "N#CC1(c2ccc(NC(=O)c3cccnc3NCc3ccncc3)cc2)CCCC1"
Marked response: 6.8

====

# Procedure details: Phase 1 single-dose plasma pharmacokinetics in subjects with normal hepatic function, mild or moderate hepatic impairment
# Type: in vivo, human
# Test settings: human, plasma, po, 200 mg, Moderate Hepatic Impairment; 36 h; 200 mg single oral dose; read-out: Plasma concentration, Geometric Mean
Measured property: concentration at 36 h (ng/mL)
Numeric only. Scale: ng/mL

Exam item: // returns reported concentration at 36 h for input "N#CC1(c2ccc(NC(=O)c3cccnc3NCc3ccncc3)cc2)CCCC1"
Marked response: 20.9

====

# Procedure details: Phase 1 single-dose plasma pharmacokinetics in subjects with normal hepatic function, mild or moderate hepatic impairment
# Type: in vivo, human
# Test settings: human, plasma, po, 200 mg, Mild Hepatic Impairment; 6 h; 200 mg single oral dose; read-out: Plasma concentration, Median
Measured property: concentration at 6 h
Answer by giving the amount and then stating its unit.

Exam item: // returns reported concentration at 6 h for input N#CC1(c2ccc(NC(=O)c3cccnc3NCc3ccncc3)cc2)CCCC1 [Rivoceranib]
Marked response: 91.3 ng/mL
